Ref: ChEMBL document CHEMBL1131438

This section presents compounds with their documented half-life values.
# method summary: In vitro half-life at 37 degree Centigrade in phosphate-buffered saline(PBS; pH =7-7.2)
# Assay type: ADME

compound	half-life
NC1=Nc2nc[nH]c2C(OCc2cnco2)N1 (stereo unspecified)	> 48 h

Identify measured half-life corresponding to NC1=Nc2nc[nH]c2C(OCc2ccccn2)N1 (stereo unspecified)
> 48 h

Identify measured half-life corresponding to NC1=NC(OCc2cncc(Br)c2)c2[nH]cnc2N1 (stereo unspecified)
> 48 h

---

This section presents compounds with their documented pIC50 values.
# measured target: Methylated-DNA--protein-cysteine methyltransferase (Homo sapiens, UniProt P16455)
# Sequence (P16455 whole entry): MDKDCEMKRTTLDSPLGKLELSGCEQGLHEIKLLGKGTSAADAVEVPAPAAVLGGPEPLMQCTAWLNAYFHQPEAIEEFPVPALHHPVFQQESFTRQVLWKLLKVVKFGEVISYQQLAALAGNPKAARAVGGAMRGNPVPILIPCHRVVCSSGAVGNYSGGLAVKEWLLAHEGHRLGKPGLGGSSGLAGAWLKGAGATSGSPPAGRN
# method summary: O6-Alkylguanine-DNA Alkyltransferase-Inactivating Activity in Raji cells (Concentration of inactivator required to produce 50% reduction in alkyltransferase activity)
# Type: cell-based
Please note pIC50 is a logarithmic value: minus log10 of concentration in mol/L. Answer with that number alone.

Below are worked cases with known answers.
compound	meas value
NC1=Nc2nc[nH]c2C(OCc2cnsc2)N1 (stereo not drawn)	7.15
NC1=Nc2nc[nH]c2C(OCc2cnco2)N1 (stereo not drawn)	6.66
NC1=NC(OCc2ccnc(Cl)c2)c2[nH]cnc2N1 (stereo not drawn)	7.30

Identify measured pIC50 corresponding to NC1=Nc2nc[nH]c2C(OCc2ccc(Cl)nc2)N1 (stereo not drawn)
6.92

Identify measured pIC50 corresponding to NC1=NC(OCc2cccs2)c2[nH]cnc2N1 (stereo not drawn)
7.52

Identify measured pIC50 corresponding to NC1=Nc2nc[nH]c2C(OCc2ccccn2)N1 (stereo not drawn)
5.22

Identify measured pIC50 corresponding to NC1=NC(OCc2ccc[n+]([O-])c2)c2[nH]cnc2N1 (stereo not drawn)
5.27

Identify measured pIC50 corresponding to NC1=Nc2nc[nH]c2C(OCc2ccco2)N1 (stereo not drawn)
6.92

---

# measured target: Methylated-DNA--protein-cysteine methyltransferase (Homo sapiens, UniProt P16455)
# method summary: O6-Alkylguanine-DNA Alkyltransferase-Inactivating Activity (Concentration of inactivator required to produce 50% reduction in alkyltransferase activity)
Rule: IC50 below 200 nM gives 1, anything at or above gives -1.

These solved cases illustrate the format of a correct answer.
molecule	category
NC1=Nc2nc[nH]c2C(OCc2cnco2)N1 (centres undefined)	-1
NC1=Nc2nc[nH]c2C(OCc2cccnc2)N1 (centres undefined)	-1
NC1=NC(OCc2cccs2)c2[nH]cnc2N1 (centres undefined)	1
NC1=Nc2nc[nH]c2C(OCc2cnc3c(c2)OCO3)N1 (centres undefined)	-1
NC1=Nc2nc[nH]c2C(OCc2ccco2)N1 (centres undefined)	1
NC1=Nc2nc[nH]c2C(OCc2cnsc2)N1 (centres undefined)	1
NC1=NC(OCc2cncc(Br)c2)c2[nH]cnc2N1 (centres undefined)	-1
NC1=NC(OCc2ccnc(Cl)c2)c2[nH]cnc2N1 (centres undefined)	1

# check: IC50 < 200 nM for NC1=NC(OCc2cncs2)c2[nH]cnc2N1 (centres undefined)
1

# check: IC50 < 200 nM for NC1=Nc2nc[nH]c2C(OCc2ccncc2)N1 (centres undefined)
1

# check: IC50 < 200 nM for Cn1cncc1COC1N=C(N)Nc2[nH]cnc21 (centres undefined)
-1

# check: IC50 < 200 nM for NC1=NC(OCc2ccc[n+]([O-])c2)c2[nH]cnc2N1 (centres undefined)
-1

# check: IC50 < 200 nM for NC1=Nc2nc[nH]c2C(OCc2ccc(Br)s2)N1 (centres undefined)
1
